# studyTarget: T1, human TREM2 (human, UniProt Q9NZC2 19-174, limits assumed)
# T1 construct: also called triggering receptor expressed on myeloid cells 2
# T1 sequence: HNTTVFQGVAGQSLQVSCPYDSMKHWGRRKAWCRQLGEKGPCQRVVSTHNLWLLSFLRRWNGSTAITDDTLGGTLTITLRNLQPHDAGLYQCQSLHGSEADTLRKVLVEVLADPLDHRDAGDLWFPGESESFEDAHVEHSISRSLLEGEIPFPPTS
# runDescription: 2nd screen, 2 nM
testReadout: Binding Signal

Req: I'd like to know its Binding Signal. The binder in question is V1 (antibody, V domains shown, also called 6E7 variant V1) VH: EVQLVQSGAEVKKPGESLKISCKGSGYSFTSSWIAWVRQMPGKGLEWMGIIYPGDSDTRYSPSFQGQVTISADKSISTAYLQWSSLKASDTAMYFCARSRTFYYDSSDYFDYWGQGTLVTVSS VL: DIQMTQSPSSVSASVGDRVTITCRASQGISSWLAWYQQKPGKAPKLLIYAASSLTNGVPSRFSGSGSGTDFTLTISSLQPEDFATYFCQQADSYPRTFGQGTKLEIK
Resp: 1.29 fold over 6E7 parental antibody

Req: Please give the measured Binding Signal for this binder: V86 (antibody, V domains shown, also called 6E7 variant V86) VH: EVQLVQSGAEVKKPGESLKISCKGSGYSFGSYWLAWVRQMPGKGLEWMGIIYPGDSDTRYSPSFEGQVTISADKSISTAYLQWSSLKASDTAMYFCARSRTFYYDSSDYFDYWGQGTLVTVSS VL: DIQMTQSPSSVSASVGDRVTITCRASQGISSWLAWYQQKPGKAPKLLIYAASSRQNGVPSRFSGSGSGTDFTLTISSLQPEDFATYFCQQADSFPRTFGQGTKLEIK
Resp: 5.17 fold over 6E7 parental antibody

Req: // returns reported Binding Signal for input V49 (antibody, V domains shown, also called 6E7 variant V49; LV-106/HV-106) VH: EVQLVQSGAEVKKPGESLKISCKGSGYSFNSYWIAWVRQMPGKGLEWMGTIYPGDSDTRLSPSFQGQVTISADKSISTAYLQWSSLKASDTAMYFCARSRTFYYDSSDYFDYWGQGTLVTVSS VL: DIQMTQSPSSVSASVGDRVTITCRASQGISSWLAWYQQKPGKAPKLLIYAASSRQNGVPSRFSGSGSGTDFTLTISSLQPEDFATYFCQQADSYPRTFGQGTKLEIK
Resp: 5.02 fold over 6E7 parental antibody
